- procedure_summary: Selectivity ratio of IC50 for electric eel AChE to IC50 for equine serum BuChE
assay_readout: Ratio IC50

Example molecules with recorded Ratio IC50:
| molecule | readout_value |
| --- | --- |
| O=C(CCCCC1CCSS1)NCCCCCCCC/N=c1/c2ccccc2nc2n1CCCCCC2 (stereo unspecified) | > 5000 |
| NCCCCCCCC/N=c1/c2ccc(Cl)cc2nc2n1CCC2 | 10.7 |
| O=C(CCCCC1CCSS1)NCCCC/N=c1/c2ccc(Cl)cc2nc2n1CCC2 (stereo unspecified) | 27.1 |
| N=c1c2ccccc2nc2n1CCC2 | 1.8 |
| O=C(CCCCC1CCSS1)NCCCCCC/N=c1/c2ccc(Cl)cc2nc2n1CCC2 (stereo unspecified) | 28.8 |
| NCCCCCC/N=c1/c2ccc(Cl)cc2nc2n1CCC2 | 3.9 |
| NCCCCC/N=c1/c2ccc(Cl)cc2nc2n1CCC2 | 0.9 |
| NCCCC/N=c1/c2ccc(Cl)cc2nc2n1CCC2 | 0.7 |

Input line: Look up Ratio IC50 of CCCC/N=c1/c2ccc(Cl)cc2nc2n1CCC2 and report it.
Output line: 1.7

Input line: Return reported Ratio IC50. Input molecule: O=C(CCCCC1CCSS1)NCCCCC/N=c1/c2ccc(Cl)cc2nc2n1CCC2 (stereo unspecified)
Output line: 83

Input line: Hello, please tell me recorded Ratio IC50 for this one: O=C(CCCCC1CCSS1)NCCCCCCC/N=c1/c2ccc(Cl)cc2nc2n1CCC2 (stereo unspecified)
Output line: 134

Input line: Input NCCCCCCC/N=c1/c2ccc(Cl)cc2nc2n1CCC2 , output reported Ratio IC50.
Output line: 5.7

Input line: # return recorded Ratio IC50 for entry O=C(CCCCC1CCSS1)NCCCCCCCC/N=c1/c2ccc(Cl)cc2nc2n1CCC2 (stereo unspecified)
Output line: 82

Input line: Tell us which Ratio IC50 value is on record for O=C(CCCCC1CCSS1)NCCC/N=c1/c2ccc(Cl)cc2nc2n1CCC2 (stereo unspecified)
Output line: 1.1

Input line: Tell me measured Ratio IC50 for NCCC/N=c1/c2ccc(Cl)cc2nc2n1CCC2 please.
Output line: 1.9

Input line: Given NCCCCCCCC/N=c1/c2ccccc2nc2n1CCCCCC2 , respond with its Ratio IC50.
Output line: 73.9

---

The following molecules are shown together with reported pIC50 values.
- experimental_system: Butyrylcholinesterase (Equus caballus)
- Sequence (Q9N1N9 whole entry): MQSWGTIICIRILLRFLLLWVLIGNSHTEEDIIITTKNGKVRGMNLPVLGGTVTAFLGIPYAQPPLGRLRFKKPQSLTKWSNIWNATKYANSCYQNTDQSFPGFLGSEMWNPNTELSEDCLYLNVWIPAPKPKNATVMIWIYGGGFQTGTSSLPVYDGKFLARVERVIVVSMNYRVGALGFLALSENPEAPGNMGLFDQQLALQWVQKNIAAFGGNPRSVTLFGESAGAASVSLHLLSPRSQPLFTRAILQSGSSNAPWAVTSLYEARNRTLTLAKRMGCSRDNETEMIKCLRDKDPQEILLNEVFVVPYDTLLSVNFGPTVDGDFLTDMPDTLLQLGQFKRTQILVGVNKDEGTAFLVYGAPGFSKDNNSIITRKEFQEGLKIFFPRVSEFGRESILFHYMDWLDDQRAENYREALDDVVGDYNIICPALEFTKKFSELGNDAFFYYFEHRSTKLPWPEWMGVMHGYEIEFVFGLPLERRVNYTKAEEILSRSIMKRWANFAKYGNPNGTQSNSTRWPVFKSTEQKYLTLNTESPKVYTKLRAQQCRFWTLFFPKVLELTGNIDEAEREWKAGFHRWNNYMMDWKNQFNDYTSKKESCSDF
- procedure_summary: Inhibition of equine serum BuChE by Ellman's assay
Kindly note that pIC50 refers to -log10 of the concentration in mol/L and answer with the value alone.

Worked examples follow.
| molecule | pIC50 |
| --- | --- |
| O=C(CCCCC1CCSS1)NCCCC/N=c1/c2ccc(Cl)cc2nc2n1CCC2 (stereo unspecified) | 6.77 |
| NCCCCCCCC/N=c1/c2ccccc2nc2n1CCCCCC2 | 7.34 |
| NCCCCCC/N=c1/c2ccc(Cl)cc2nc2n1CCC2 | 6.42 |
| NCCCC/N=c1/c2ccc(Cl)cc2nc2n1CCC2 | 6.14 |
| O=C(CCCCC1CCSS1)NCCCCCCCC/N=c1/c2ccccc2nc2n1CCCCCC2 (stereo unspecified) | 7.64 |
| c1ccc(C/N=c2/c3ccccc3nc3n2CCCCCCC3)cc1 | 5.96 |

// switching to the query molecule
Input line: Please list pIC50 recorded for the molecule NCCC/N=c1/c2ccc(Cl)cc2nc2n1CCC2
Output line: 4.99
